# assayed_system: μ-opioid receptor (Homo sapiens (Human), UniProt P35372)
# protocol: μ-opioid receptor [35S]GTPγS functional assay, HEK-293 or CHO cells
# Format: biochemical
# experimental_setup: GTPγS, HEK-293 or CHO cells; read-out: μ EC50
measurement_label: EC50 (µM)
// note: answer is a bare numeric in µM

Lookup: I'd like to know its EC50. The compound in question is COc1ccc2c(c1)[C@]13CCN(CC4CC4)[C@H](C2)[C@@H]1Cc1cc(C(=O)O)c(=O)[nH]c1C3 [Compound 10]
Found: 0.225

* * *

Hi there, I'd appreciate the recorded EC50 for every entry that follows.
# assayed_system: UniProt P41145
# protocol: κ-opioid receptor [35S]GTPγS functional assay, U-2 OS cells
# Assay type: biochemical

Lookup: I'd like to know its EC50. The compound in question is O=C(c1ccccc1)c1cc2c([nH]c1=O)C[C@]13CCN(CC4CC4)[C@H](Cc4ccc(O)cc41)[C@]3(O)C2
Found: 17.9 µM

Lookup: I'd like to know its EC50. The compound in question is COc1ccc2c(c1)[C@]13CCN(C)[C@H](C2)[C@]1(O)Cc1cc(C(=O)O)c(=O)[nH]c1C3
Found: > 20 µM

Lookup: I'd like to know its EC50. The compound in question is CN(C)C(=O)c1cc2c([nH]c1=O)C[C@]13CCN(C)[C@H](Cc4ccc(O)cc41)[C@]3(O)C2
Found: 0.624 µM

Lookup: I'd like to know its EC50. The compound in question is COc1ccc2c(c1)[C@]13CCN[C@H](C2)[C@]1(O)Cc1cc(C(N)=O)c(=O)[nH]c1C3
Found: > 20 µM

Lookup: I'd like to know its EC50. The compound in question is NC(=O)c1cc2c([nH]c1=O)C[C@]13CCN(CC(F)(F)F)[C@H](Cc4ccc(O)cc41)[C@]3(O)C2
Found: > 20 µM

Lookup: I'd like to know its EC50. The compound in question is CN1CC[C@]23Cc4[nH]c(=O)c(C(=O)N5CCCC5)cc4C[C@@]2(O)[C@H]1Cc1ccc(O)cc13
Found: 0.226 µM
